Data origin, for the record: paper PMC9340783

Some binders, each annotated with its measured pEC50.
# Assayed target: T1, human GITR on 293F‐hGITR cells (Homo sapiens (Human)., UniProt Q9Y5U5-1)
# T1 construct: Also used as the target of the functional rows (Jurkat‐hGITR‐NF‐ĸB‐Luc cells made with the same lentiviral construct; endogenous GITR on human T cells)
# T1 sequence (Q9Y5U5 26-241): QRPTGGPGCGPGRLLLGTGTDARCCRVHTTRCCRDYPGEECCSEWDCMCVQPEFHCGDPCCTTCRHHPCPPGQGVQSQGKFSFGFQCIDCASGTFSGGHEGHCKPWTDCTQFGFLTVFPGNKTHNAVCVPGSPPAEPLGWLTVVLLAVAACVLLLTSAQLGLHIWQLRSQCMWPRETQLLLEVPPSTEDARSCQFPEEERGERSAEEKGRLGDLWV
# Protocol description: flow cytometry on cells; 293F‐hGITR or 293F‐cynoGITR cells incubated with antibodies at 4 °C for 1 h, fluorescent anti-rat/human secondary antibody; EC50 of MFI curve
# Measurement parameters: one partner purified
pEC50: −log10 of the molar value.
Experimental readout: pEC50

Binder	Reported value
hab064 (antibody, V domains shown, 3503‐hab064‐VH; 3503‐hab064‐Vk; Whole antibody, human IgG1 heavy chain constant region, human kappa light chain constant region; source: FreeStyle 293F, transiently co-transfected, purified from culture supernatant) VH: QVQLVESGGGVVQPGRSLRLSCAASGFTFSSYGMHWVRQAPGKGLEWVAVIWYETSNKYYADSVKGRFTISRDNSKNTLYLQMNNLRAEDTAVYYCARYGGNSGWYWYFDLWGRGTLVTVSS VL: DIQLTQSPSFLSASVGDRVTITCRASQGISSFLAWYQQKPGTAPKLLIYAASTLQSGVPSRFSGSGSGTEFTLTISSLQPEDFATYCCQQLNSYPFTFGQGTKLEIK	9.78
hab070e1 (antibody, V domains shown, as the VH of m14 (3503‐hab070‐VH); 3503‐hab070‐Vk(C2Y); the substitution is against the VL of m14 (Cys in FR3 of VL); position not given; Whole antibody, human IgG1 heavy chain constant region, human kappa light chain constant region; also called hab70e1; source: FreeStyle 293F, transiently co-transfected, purified from culture supernatant) VH: QVQLVESGGGVVQPGRSLRLSCAASGFTFSSYGMHWVRQAPGKGLEWVAVIWYETSNKFYVDSVKGRFTISRDNSKNTLYLQMNSLRAEDTAVYYCARYGASSGWYWYFDLWGRGTLVTVSS VL: DIQLTQSPSFLSASVGDRVTITCRASQGISSFLAWYQQKPGKAPKLLIYAASTLQSGVPSRFSGSGSGTEFTLTISSLQPEDFATYYCQQLNSYPFTFGQGTKLEIK	9.79
hab064e1 (antibody, V domains shown, 3503‐hab064‐VH(N2S); the substitution is against the VH of m13; position not given; 3503‐hab064‐Vk(T2K/C2Y); the substitutions are against the VL of m13; positions not given; Whole antibody, human IgG1 heavy chain constant region, human kappa light chain constant region; source: FreeStyle 293F, transiently co-transfected, purified from culture supernatant) VH: QVQLVESGGGVVQPGRSLRLSCAASGFTFSSYGMHWVRQAPGKGLEWVAVIWYETSNKYYADSVKGRFTISRDNSKNTLYLQMNSLRAEDTAVYYCARYGGNSGWYWYFDLWGRGTLVTVSS VL: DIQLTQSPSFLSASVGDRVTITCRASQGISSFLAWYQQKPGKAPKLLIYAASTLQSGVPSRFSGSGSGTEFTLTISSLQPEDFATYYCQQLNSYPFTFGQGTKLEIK	9.63
hab076 (antibody, V domains shown, 3503‐hab076‐VH; 3503‐hab076‐Vk; Whole antibody, human IgG1 heavy chain constant region, human kappa light chain constant region; source: FreeStyle 293F, transiently co-transfected, purified from culture supernatant) VH: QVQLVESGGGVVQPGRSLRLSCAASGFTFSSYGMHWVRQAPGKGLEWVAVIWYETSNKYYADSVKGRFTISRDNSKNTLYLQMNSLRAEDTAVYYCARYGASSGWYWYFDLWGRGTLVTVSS VL: DIQLTQSPSFLSASVGDRVTITCRASQGISSYLAWYQQKPGKAPKLLIYAASTLQSGVPSRFSGSGSGTEFTLTISSLQPEDFATYCCQQLNSYPFTFGQGTKLEIK	9.75
mAb064 (antibody, V domains shown, as the VH of m13; as the VL of m13; Human-murine chimeric antibody from H2L2 mice: human variable regions, rat constant regions; source: hybridoma cell culture supernatant, purified (Protein A)) VH: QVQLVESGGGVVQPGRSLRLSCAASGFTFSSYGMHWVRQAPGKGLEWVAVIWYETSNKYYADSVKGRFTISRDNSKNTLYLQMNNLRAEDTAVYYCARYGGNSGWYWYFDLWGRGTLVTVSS VL: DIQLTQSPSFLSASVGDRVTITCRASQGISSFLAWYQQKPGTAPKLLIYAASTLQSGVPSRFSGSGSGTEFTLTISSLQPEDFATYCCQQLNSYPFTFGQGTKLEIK	9.41
Tab9H6v3 (antibody, V domains shown, heavy chain variable region of clone 9H6v3 (AMGEN INC.); light chain variable region of clone 9H6v3 (AMGEN INC.)) VH: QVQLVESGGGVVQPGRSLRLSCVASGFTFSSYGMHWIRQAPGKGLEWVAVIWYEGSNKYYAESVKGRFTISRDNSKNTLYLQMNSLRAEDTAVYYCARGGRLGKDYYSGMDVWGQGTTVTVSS VL: DIQMTQSPSSLSASVGDRVTITCRASQGIRNDLGWYQQKPGKAPKRLIYATSSLQSGVPSRFSGSGSGTEFTLTISSLQPEDFATYYCLQHNTYPWTFGQGTKVEIK	9.74
mAb076 (antibody, V domains shown, as the VH of m15; as the VL of m15; Human-murine chimeric antibody from H2L2 mice: human variable regions, rat constant regions; source: hybridoma cell culture supernatant, purified (Protein A)) VH: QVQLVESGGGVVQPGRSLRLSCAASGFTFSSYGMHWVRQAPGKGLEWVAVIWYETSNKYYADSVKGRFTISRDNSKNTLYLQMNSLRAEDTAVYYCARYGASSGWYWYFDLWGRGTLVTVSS VL: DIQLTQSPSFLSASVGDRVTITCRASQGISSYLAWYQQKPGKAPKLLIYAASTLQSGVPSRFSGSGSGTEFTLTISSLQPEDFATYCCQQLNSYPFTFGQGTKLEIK	9.82
hab076e1 (antibody, V domains shown, as the VH of m15 (3503‐hab076‐VH); 3503‐hab076‐Vk(C2Y); the substitution is against the VL of m15 (Cys in FR3 of VL); position not given; Whole antibody, human IgG1 heavy chain constant region, human kappa light chain constant region; source: FreeStyle 293F, transiently co-transfected, purified from culture supernatant) VH: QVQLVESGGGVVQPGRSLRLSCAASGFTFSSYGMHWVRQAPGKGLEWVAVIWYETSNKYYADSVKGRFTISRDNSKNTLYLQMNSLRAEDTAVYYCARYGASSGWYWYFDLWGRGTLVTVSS VL: DIQLTQSPSFLSASVGDRVTITCRASQGISSYLAWYQQKPGKAPKLLIYAASTLQSGVPSRFSGSGSGTEFTLTISSLQPEDFATYYCQQLNSYPFTFGQGTKLEIK	9.71
mAb070 (antibody, V domains shown, as the VH of m14; as the VL of m14; Human-murine chimeric antibody from H2L2 mice: human variable regions, rat constant regions; source: hybridoma cell culture supernatant, purified (Protein A)) VH: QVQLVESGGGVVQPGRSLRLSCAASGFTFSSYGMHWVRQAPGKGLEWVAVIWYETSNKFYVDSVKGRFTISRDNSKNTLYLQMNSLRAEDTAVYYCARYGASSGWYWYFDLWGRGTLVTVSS VL: DIQLTQSPSFLSASVGDRVTITCRASQGISSFLAWYQQKPGKAPKLLIYAASTLQSGVPSRFSGSGSGTEFTLTISSLQPEDFATYCCQQLNSYPFTFGQGTKLEIK	9.45
hab070 (antibody, V domains shown, 3503‐hab070‐VH; 3503‐hab070‐Vk; Whole antibody, human IgG1 heavy chain constant region, human kappa light chain constant region; source: FreeStyle 293F, transiently co-transfected, purified from culture supernatant) VH: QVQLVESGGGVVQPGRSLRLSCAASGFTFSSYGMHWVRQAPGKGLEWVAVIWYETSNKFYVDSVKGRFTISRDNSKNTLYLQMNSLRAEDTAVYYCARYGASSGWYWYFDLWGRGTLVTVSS VL: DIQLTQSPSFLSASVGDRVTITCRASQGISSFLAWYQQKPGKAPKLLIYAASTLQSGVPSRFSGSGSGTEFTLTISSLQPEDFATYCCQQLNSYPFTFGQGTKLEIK	9.72
